Target: human recombinant IL-17A (Homo sapiens, UniProt Q16552)
Construct: purchased R&D Systems 7955-IL/CF
Sequence (Q16552 24-155): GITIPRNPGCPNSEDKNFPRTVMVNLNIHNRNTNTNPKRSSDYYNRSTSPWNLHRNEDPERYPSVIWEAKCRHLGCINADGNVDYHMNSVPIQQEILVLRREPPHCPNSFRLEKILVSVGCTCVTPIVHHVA
Assay: IL-17A AlphaLISA assay (block binding of IL-17A to its receptor IL-17RA)
Conditions: compounds pre-incubated with the IL-17A for 30 min (indicated by * in Table A); read-out: AlphaLISA pIC50 (converted)
Method: The ability of the compounds to block binding of IL-17A to its receptor, IL-17RA, was analysed in a competition assay using AlphaLISA technology (Perkin Elmer). […] The luminescence signal was measured using an Enspire plate reader (Perkin Elmer) with excitation at 680 nm and emission at 615 nm. Data were analysed using GraphPad Prism and fitted to a 4-parameter logistic equation. […]
result_type: IC50 (nM)

Here are 2 compounds together with their reported answers.
Q: Form field: reported IC50 of Cc1cnn(C)c1-c1ccc(NC(=O)[C@@H](NC(=O)c2conc2C(C)C)[C@H]2CC[C@H](C)CC2)nc1
A: 39.8

Q: Form field: reported IC50 of Cc1n[nH]c(C)c1-c1ccc(NC(=O)C(NC(=O)c2ccnn2C)C2CCCCCCC2)cc1 (stereo not shown)
A: 79.4

[1] CCc1nocc1C(=O)N[C@H](C(=O)Nc1ccc(-c2c(C)nnn2C)cn1)[C@H]1CC[C@H](C)CC1
[2] Cc1cnn(C)c1-c1ccc(NC(=O)[C@@H](NC(=O)c2conc2C)[C@H]2CC[C@H](C)CC2)nc1
Q: # return whichever of 1 and 2 has the smaller IC50 // return label of chosen record
A: 2

###

target: human recombinant IL-17A (Homo sapiens, UniProt Q16552); construct: purchased R&D Systems 7955-IL/CF; test: IL-17A AlphaLISA assay (block binding of IL-17A to its receptor IL-17RA); details: compounds pre-incubated with the IL-17A for 30 min (indicated by * in Table A); read-out: AlphaLISA pIC50 (converted)
result_type: IC50 (nM)

Here are 2 compounds together with their reported answers.
Q: Form field: reported IC50 of Cc1nsc(C)c1-c1ccc(NC(=O)[C@@H](NC(=O)c2ccnn2C)[C@H]2CC[C@H](C)CC2)nc1
A: 251

Q: Form field: reported IC50 of Cc1noc(C)c1-c1ccc(NC(=O)[C@@H](NC(=O)c2ccnn2C)[C@H]2CC[C@H](C)CC2)cn1
A: 251

[I] CCc1nocc1C(=O)N[C@H](C(=O)Nc1ncc(-c2c(C)noc2C)cc1F)C1CCCCCC1
[II] CCc1nocc1C(=O)NC(C(=O)Nc1ccc(-c2c(C)cnn2C)cn1)[C@H]1CC[C@H](C(F)(F)F)CC1 (stereo partly shown)
[III] CCn1nnc(C)c1-c1ccc(NC(=O)[C@@H](NC(=O)c2ccnn2C)C2CCCCCC2)nc1
[IV] Cc1cnn(C)c1-c1ccc(NC(=O)C(NC(=O)c2ccnn2C)C2CCCCCCC2)nc1 (stereo not shown)
[V] Cc1nocc1C(=O)N[C@H](C(=O)Nc1ccc(-c2c(C)noc2C)cn1)[C@H]1CC[C@H](C)CC1
Q: List items by IC50 in falling order. // ordering of labels required in reply
A: II, III, IV, V, I
(II: 398 nM, III: 251 nM, IV: 158 nM, V: 100 nM, I: 63.1 nM)

###

Target: human recombinant IL-17A (Homo sapiens)
Construct: purchased R&D Systems 7955-IL/CF
Sequence (Q16552 24-155): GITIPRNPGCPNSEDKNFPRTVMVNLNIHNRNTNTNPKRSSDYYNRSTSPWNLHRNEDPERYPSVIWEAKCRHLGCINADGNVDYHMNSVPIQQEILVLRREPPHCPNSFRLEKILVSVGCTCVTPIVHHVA
Test: IL-17A AlphaLISA assay (block binding of IL-17A to its receptor IL-17RA)
Conditions: compounds pre-incubated with the IL-17A for 24 h at room temperature; read-out: AlphaLISA pIC50 (converted)
result_type: IC50 (µM)

Here are 2 molecules together with their reported answers.
Q: Form field: reported IC50 of Cc1cncc(C)c1-c1ccc(NC(=O)[C@@H](NC(=O)c2ccnn2C)C(c2ccccc2)c2ccccc2)cc1
A: 0.0126

Q: Form field: reported IC50 of Cn1nccc1C(=O)N[C@H](C(=O)Nc1ccc(-c2ccncc2CC(=O)N2CCCC2)cc1)[C@H]1CC[C@H](C)CC1
A: 0.251

[1] Cn1nccc1C(=O)N[C@H](C(=O)Nc1ccc(-c2cn[nH]c2)c(F)c1)C(c1ccccc1)c1ccccc1
[2] Cn1nccc1C(=O)N[C@H](C(=O)Nc1ccc(-c2ccncc2C#N)cc1)C(c1ccccc1)c1ccccc1
Q: Lab note: check whether 1 or 2 shows the higher recorded IC50. // return label of chosen record
A: 1
(1: 0.794 µM, 2: 0.126 µM)

###

biological target: human recombinant IL-17A (Homo sapiens); construct: purchased R&D Systems 7955-IL/CF; assay: IL-17A AlphaLISA assay (block binding of IL-17A to its receptor IL-17RA); conditions: compounds pre-incubated with the IL-17A for 24 h at room temperature; read-out: AlphaLISA pIC50 (converted)
result_type: IC50 (nM)

Here are 5 molecules together with their reported answers.
Q: Form field: reported IC50 of Cn1nccc1C(=O)N[C@H](C(=O)Nc1ccc(-c2cn(C)c(=O)c3[nH]ncc23)c(F)c1)C(c1ccccc1)c1ccccc1
A: 31.6

Q: Form field: reported IC50 of COc1cnccc1-c1ccc(NC(=O)C(NC(=O)c2ccnn2C)C2c3ccccc3-c3ccccc32)cc1 (stereo not shown)
A: 25.1

Q: Form field: reported IC50 of COc1cnccc1-c1ccc(NC(=O)[C@@H](NC(=O)c2ccnn2C)C(c2ccccc2)c2ccccc2)cc1F
A: 31.6

Q: Form field: reported IC50 of Cn1nccc1C(=O)N[C@H](C(=O)Nc1ccc(-c2ccnc3[nH]ccc23)cc1)C(c1ccccc1)c1ccccc1
A: 39.8

Q: Form field: reported IC50 of Cc1n[nH]cc1-c1ccc(NC(=O)[C@@H](NC(=O)c2ccnn2C)C(c2ccccc2)c2ccccc2)cc1F
A: 50.1

[I] Cn1nccc1C(=O)N[C@H](C(=O)Nc1ccc(-c2c[nH]c(=O)c3[nH]ccc23)cc1)[C@H]1CC[C@H](C)CC1
[II] CNc1cnccc1-c1ccc(NC(=O)[C@@H](NC(=O)c2ccnn2C)C(c2ccccc2)c2ccccc2)cc1
Q: Lab note: check whether I or II shows the higher recorded IC50. // return label of chosen record
A: I

###

target: human recombinant IL-17A (Homo sapiens); construct: purchased R&D Systems 7955-IL/CF; test: IL-17A AlphaLISA assay (block binding of IL-17A to its receptor IL-17RA); conditions: compounds pre-incubated with the IL-17A for 24 h at room temperature; read-out: AlphaLISA pIC50 (converted)
result_type: IC50 (nM)

[I] Cn1nccc1C(=O)N[C@H](C(=O)Nc1ccc(-c2cn[nH]c(=O)c2)c(F)c1)C(c1ccccc1)c1ccccc1 [Example 70]
[II] Cc1cc(-c2ccc(NC(=O)[C@@H](NC(=O)c3ccnn3C)C(c3ccccc3)c3ccccc3)cc2)c(C)cn1 [Example 38]
[III] Cc1nccc(-c2ccc(NC(=O)[C@@H](NC(=O)c3ccnn3C)C(c3ccccc3)c3ccccc3)cc2)c1C [Example 1]
[IV] CN(C)c1cnccc1-c1ccc(NC(=O)[C@@H](NC(=O)c2ccnn2C)C(c2ccccc2)c2ccccc2)cc1 [Example 8]
Q: Rank by IC50 (largest to smallest). // ordering of labels required in reply
A: I, II, III, IV

###

biological target: human recombinant IL-17A (Homo sapiens); construct: purchased R&D Systems 7955-IL/CF; experiment: IL-17A AlphaLISA assay (block binding of IL-17A to its receptor IL-17RA); settings: compounds pre-incubated with the IL-17A for 24 h at room temperature; read-out: AlphaLISA pIC50 (converted)
result_type: IC50 (µM)

Here are 5 compounds together with their reported answers.
Q: Form field: reported IC50 of Cn1nccc1C(=O)N[C@H](C(=O)Nc1ccc(-c2cnc3ccccn23)cc1)C(c1ccccc1)c1ccccc1 [Example 39]
A: 0.2

Q: Form field: reported IC50 of Cc1nn(Cc2ccccc2)c(C)c1-c1ccc(NC(=O)[C@@H](NC(=O)c2ccnn2C)C(c2ccccc2)c2ccccc2)cc1 [Example 31]
A: 0.631

Q: Form field: reported IC50 of Cc1noc(C)c1-c1ccc(NC(=O)[C@@H](NC(=O)c2ccnn2C)C(c2ccccc2)c2ccccc2)cc1F [Example 60]
A: 0.0398

Q: Form field: reported IC50 of COc1c[n+]([O-])cc(OC)c1-c1ccc(NC(=O)[C@@H](NC(=O)c2ccnn2C)C(c2ccccc2)c2ccccc2)cc1 [Example 27]
A: 0.00501

Q: Form field: reported IC50 of Cn1nccc1C(=O)N[C@H](C(=O)Nc1ccc(-c2ccc(=O)n(C)n2)c(F)c1)C(c1ccccc1)c1ccccc1 [Example 48]
A: 0.158

[P] Cc1cncc(C)c1-c1ccc(NC(=O)[C@@H](NC(=O)c2ccnn2C)[C@H]2CC[C@H](C)CC2)nc1 [Example 90]
[Q] Cn1nccc1C(=O)N[C@H](C(=O)Nc1ccc(-c2c[nH]c(=O)c3[nH]ccc23)c(F)c1)C(c1ccccc1)c1ccccc1 [Example 68]
[R] Cc1nccc(-c2ccc(NC(=O)[C@@H](NC(=O)c3ccnn3C)C(c3ccccc3)c3ccccc3)cc2F)c1C [Example 57]
[S] Cc1c(-c2c(F)cc(NC(=O)[C@@H](NC(=O)c3ccnn3C)C(c3ccccc3)c3ccccc3)cc2F)ccc(=O)n1C [Example 29]
Q: Rank the items in ascending order with respect to IC50. // ordering of labels required in reply
A: Q, S, P, R

[1] COc1cncc(F)c1-c1ccc(NC(=O)[C@@H](NC(=O)c2ccnn2C)C(c2ccccc2)c2ccccc2)cc1 [Example 10]
[2] Cn1nccc1C(=O)N[C@H](C(=O)Nc1ccc(-c2cccc(=O)n2C)c(F)c1)C(c1ccccc1)c1ccccc1 [Example 71]
[3] Cc1ncc(C)c(-c2ccc(NC(=O)[C@@H](NC(=O)c3ccnn3C)C(c3ccccc3)c3ccccc3)cc2)n1 [Example 37]
Q: Rank the items in ascending order with respect to IC50. // ordering of labels required in reply
A: 1, 2, 3
(1: 0.00794 µM, 2: 0.0158 µM, 3: 0.0398 µM)

[1] CCn1nccc1C(=O)N[C@H](C(=O)Nc1ccc(-c2c[nH]nc2C)c(F)c1)C(c1ccccc1)c1ccccc1 [Example 59]
[2] Cc1c(-c2ccc(NC(=O)[C@@H](NC(=O)c3ccnn3C)C(c3ccccc3)c3ccccc3)cc2)ccc(=O)n1C [Example 13]
Q: # return whichever of 1 and 2 has the smaller IC50 // return label of chosen record
A: 2

[1] COc1cnccc1-c1ccc(NC(=O)[C@@H](NC(=O)c2ccnn2C)C(c2ccccc2)c2ccccc2)c(F)c1 [Example 23]
[2] Cn1nccc1C(=O)N[C@H](C(=O)Nc1ccc(-c2cnc(=O)[nH]c2)c(F)c1)C(c1ccccc1)c1ccccc1 [Example 64]
[3] Cn1nccc1C(=O)N[C@H](C(=O)Nc1ccc(-c2ccncc2CC(=O)N2CCCC2)cc1)C(c1ccccc1)c1ccccc1 [Example 78]
Q: List items by IC50 in falling order. // ordering of labels required in reply
A: 2, 1, 3
